Target: UniProtKB H9A5M2
Sequence (H9A5M2 entry or part of it): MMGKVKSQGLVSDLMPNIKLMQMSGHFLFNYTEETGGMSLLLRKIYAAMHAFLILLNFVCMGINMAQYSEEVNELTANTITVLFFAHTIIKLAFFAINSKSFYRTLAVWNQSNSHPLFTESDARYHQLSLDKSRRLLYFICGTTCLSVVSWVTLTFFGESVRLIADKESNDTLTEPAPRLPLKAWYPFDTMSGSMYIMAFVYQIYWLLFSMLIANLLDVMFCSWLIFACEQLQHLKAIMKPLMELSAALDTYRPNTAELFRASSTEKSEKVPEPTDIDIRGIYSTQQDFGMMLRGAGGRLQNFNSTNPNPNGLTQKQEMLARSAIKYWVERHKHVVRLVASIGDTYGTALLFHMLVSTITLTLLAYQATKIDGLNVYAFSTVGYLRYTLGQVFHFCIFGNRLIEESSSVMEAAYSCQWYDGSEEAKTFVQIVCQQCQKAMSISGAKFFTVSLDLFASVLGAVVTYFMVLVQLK
Test: Calcium imaging of HEK293T cells expressing homomeric CpomOrco
Conditions: peak amplitudes normalized to response at 1000 μM agonist, read-out: [A]1/2 half-effective concentration of agonist, calcium response
pEC50: −log10 of the molar value.
pEC50 for assorted compounds

sample_smiles	pEC50
CCc1ccc(NC(=O)CSc2nnc(-c3cccnc3)n2CC)cc1	~3.28

Next compound, pEC50 to be filled in.
Let me know recorded pEC50 for `CCn1c(SCC(=O)Nc2ccc(C(C)C)cc2)nnc1-c1ccncc1` , thanks.
~3.44

====

Measured Spikes/s by item
Tested on: CpomOR1
Experiment: Single sensillum recordings, CpomOR1 expressed in Drosophila at1 OSNs
Assay type: cell-based, Cydia pomonella
Settings: replicate 2; 10 μg per stimulus
Your answer is read as Spikes/s, so omit the unit and give the number.

Please indicate Spikes/s recorded for C/C=C\C/C=C/CCCCCCCCOC(C)=O [(Z9,E12)-14:Ac]
-4

Provide only the value of recorded Spikes/s for C=C/C=C(\C)CCC=C(C)C [4,8-Dimethyl-1,(E)-3,7-nonatriene]
-6

Please report the measured Spikes/s for CCCCC/C=C\C=C\C(=O)OCC [(E,Z)-ED, ethyl-(E,Z)-2,4-decadienoate]
2

Answer with reported Spikes/s of CCCCCCCCCCCCO [1-dodecanol]
4

Hello, please tell me recorded Spikes/s for this one: C=CC(=C)CC/C=C(\C)CCC=C(C)C [(E)-β-farnesene]
4

Give Spikes/s for the following compound: C/C=C\C=C\CCCCCCCO [(E8,Z10)-12:OH]
-2

Let me know recorded Spikes/s for C/C=C/C=C/CCCCCCCOC(C)=O [codlemone acetate, (E,E)-8,10-dodecadien-1-yl acetate] , thanks.
4

Identify measured Spikes/s associated with C/C=C/C=C\CCCCCCCO [(Z8,E10)-12:OH]
0

Determine its reported Spikes/s: C/C=C\C=C/CCCCCCCO [(Z8,Z10)-12:OH]
0

Consider the compound C/C=C/CCCCCCCCCO [(E10)-12:OH] . State its measured Spikes/s.
-2

Query Spikes/s for C/C=C/C=C/CCCCCCCO [codlemone, (E,E)-8,10-dodecadien-1-ol]
2

Please look at this compound and report its Spikes/s: CCC/C=C/CCCCCCCO [(E8)-12:OH]
4
